Numbers sourced from ChEMBL document CHEMBL1201862.

Answer each item with its documented IC50.
- test.system: Rac GTPase-activating protein 1 (Homo sapiens, UniProt Q9H0H5)
- Sequence (Q9H0H5 whole entry): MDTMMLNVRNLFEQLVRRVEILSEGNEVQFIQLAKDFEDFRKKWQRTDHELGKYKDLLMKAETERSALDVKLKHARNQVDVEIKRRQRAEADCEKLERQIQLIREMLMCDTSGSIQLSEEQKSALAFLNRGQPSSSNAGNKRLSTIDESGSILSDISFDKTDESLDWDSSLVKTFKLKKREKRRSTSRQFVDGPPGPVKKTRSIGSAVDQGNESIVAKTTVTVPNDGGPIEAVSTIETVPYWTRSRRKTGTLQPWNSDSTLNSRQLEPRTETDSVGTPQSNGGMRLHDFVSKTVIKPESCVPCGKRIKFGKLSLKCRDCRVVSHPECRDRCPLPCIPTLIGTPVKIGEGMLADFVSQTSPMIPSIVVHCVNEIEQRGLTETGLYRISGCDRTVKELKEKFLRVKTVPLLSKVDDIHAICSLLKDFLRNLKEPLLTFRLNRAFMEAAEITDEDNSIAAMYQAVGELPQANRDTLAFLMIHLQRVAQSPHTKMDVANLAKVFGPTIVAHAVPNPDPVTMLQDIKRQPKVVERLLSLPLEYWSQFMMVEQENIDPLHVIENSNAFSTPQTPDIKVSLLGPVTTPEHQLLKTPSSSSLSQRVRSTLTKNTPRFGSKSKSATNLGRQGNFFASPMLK
- test.protocol: MgcRacGAP GTPase-activating activity inhibitors, confirmation, biochemical, ADP Hunter fluorescence, primary and confirmatory (AID 624330)
- Type: functional
Calls of active or inactive are those of the source.

Problem: What does the data say about its IC50? Entry: "COc1cc(CNc2ncc(-c3ccc(Br)cc3)n2C)cc(OC)c1O"
Solution: 52 µM (active)

Problem: And for "CCOC(=O)c1c(OCC)[nH]c2c1cc(O)c1ccccc12" ?
Solution: 63.5 µM (active)

Problem: Moving on to "COc1cc(/C=N/NC(=O)NC23CC4CC(CC(C4)C2)C3)ccc1O"
Solution: 54.5 µM (active)

Problem: Consider next the molecule "Oc1ccc(NCc2ccccc2OCc2ccccc2F)cc1" in the same way.
Solution: 71.4 µM (active)

Problem: What do we get for "COc1ccc(Br)cc1CN1CCN(C(=O)c2ccc(F)cc2)CC1" ?
Solution: 212 µM (active)

Problem: How about this molecule: "COc1cc(/C=N/NC(=O)c2ccc3c(c2)OCO3)ccc1O"
Solution: 28.5 µM (active)

Problem: Thanks! And "FC(F)(F)c1cccc(N2CCC(/N=C/N3CCCCCC3)=N2)c1" ?
Solution: 56.4 µM (active)

Problem: Moving on to the next molecule: "CN(C)c1ccc(/C=N/N2CCN(Cc3ccccc3Cl)CC2)cc1"
Solution: 69.6 µM (active)

Problem: Then what about the molecule "Oc1ccc(C=NNc2nc3ccccc3s2)c(O)c1" ?
Solution: 88.4 µM (active)

Problem: Also "C/C(=N\Nc1ccc([N+](=O)[O-])cc1)c1ccc(N)cc1" ?
Solution: 109 µM (active)

Problem: Please give the result for "CO/C(O)=C(/C=N/c1ccc(O)cc1)[N+](=O)[O-]" too.
Solution: 25.5 µM (active)

Problem: Okay, and "CCCCc1nc2ccccc2c(NC(=O)CN2CCN(C)CC2)c1CCC" ?
Solution: 50.3 µM (active)

Problem: Repeat for the following molecule: "Oc1ccc(C=NNc2ccccn2)c(O)c1"
Solution: 27 µM (active)

Problem: One more molecule: "COc1ccc(CN2CCN(Cc3c[nH]c4ccccc34)CC2)c(OC)c1"
Solution: 104 µM (active)

Problem: Moving on to the next molecule: "C/C(=N\NC(=O)CSc1nc2ccccc2o1)c1ccc(O)cc1"
Solution: 86.9 µM (active)

---

- test.system: SUMO-activating enzyme (Homo sapiens, UniProt Q9UBT2)
- Sequence (Q9UBE0 whole entry): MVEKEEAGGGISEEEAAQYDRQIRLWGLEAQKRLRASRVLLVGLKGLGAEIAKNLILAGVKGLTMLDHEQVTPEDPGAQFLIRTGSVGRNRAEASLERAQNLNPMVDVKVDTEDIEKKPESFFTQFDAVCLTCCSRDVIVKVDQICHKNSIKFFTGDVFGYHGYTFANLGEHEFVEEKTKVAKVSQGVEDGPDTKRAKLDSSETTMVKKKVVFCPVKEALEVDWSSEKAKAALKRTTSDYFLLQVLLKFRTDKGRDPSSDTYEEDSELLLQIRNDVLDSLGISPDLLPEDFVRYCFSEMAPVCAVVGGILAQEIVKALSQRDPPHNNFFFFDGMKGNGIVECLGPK
- Sequence (Q9UBT2 whole entry): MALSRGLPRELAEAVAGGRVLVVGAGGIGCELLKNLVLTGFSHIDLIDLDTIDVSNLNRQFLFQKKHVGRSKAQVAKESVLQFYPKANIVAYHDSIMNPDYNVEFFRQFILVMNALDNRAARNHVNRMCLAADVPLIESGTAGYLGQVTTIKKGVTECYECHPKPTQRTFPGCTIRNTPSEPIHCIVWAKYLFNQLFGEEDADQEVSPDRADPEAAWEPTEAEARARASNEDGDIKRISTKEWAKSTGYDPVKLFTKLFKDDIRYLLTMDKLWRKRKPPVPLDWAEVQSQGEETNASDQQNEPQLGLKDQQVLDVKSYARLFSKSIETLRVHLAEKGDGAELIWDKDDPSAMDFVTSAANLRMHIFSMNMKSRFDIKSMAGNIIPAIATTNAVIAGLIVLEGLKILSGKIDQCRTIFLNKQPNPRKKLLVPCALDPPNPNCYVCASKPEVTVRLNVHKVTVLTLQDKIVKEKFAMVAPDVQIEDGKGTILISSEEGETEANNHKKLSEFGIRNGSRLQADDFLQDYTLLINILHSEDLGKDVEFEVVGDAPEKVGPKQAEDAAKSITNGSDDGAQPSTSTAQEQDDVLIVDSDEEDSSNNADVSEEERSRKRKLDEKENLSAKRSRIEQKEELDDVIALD
- test.protocol: SUMOylation inhibitor hit validation, confirmation, SUMOylation inhibitor project, biochemical, AlphaScreen (AID 2018)
- Format: functional
The source made the active and inactive calls.
Assignment: determine reported IC50 for the given compounds.

Problem: Returns the measured IC50 for the input compound. Input: "Cc1ccccc1Nc1cc2ccccc2c(O)n1"
Solution: 1.84 µM (active)

Problem: Another: COC(=O)c1nc2n(n1)C(c1ccc([N+](=O)[O-])cc1)C(C(=O)Nc1ccc(Cl)cc1)=C(C)N2 (centres undefined)
Solution: 32.4 µM (active)

Problem: Follow-up item: "CC(=O)Nc1ccc(NC(=O)Cn2c(-c3ccc(F)cc3)cnc2SCC(=O)Nc2c(C)cccc2C)cc1"
Solution: 61.6 µM (active)

Problem: Also "NS(=O)(=O)c1ccc(NC2=CC(=O)C(=O)c3ccccc32)cc1" ?
Solution: 2.11 µM (active)
